B1: tRNA (parent)
chain: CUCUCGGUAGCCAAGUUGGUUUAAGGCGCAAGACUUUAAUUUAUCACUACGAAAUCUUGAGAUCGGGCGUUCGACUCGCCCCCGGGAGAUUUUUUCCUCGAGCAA

Variants of: B1
Test: nonsense suppression (GFP-seq) (ratio to wild type); higher = more function; SUP4oc tRNA, yeast GFP reporter sort-seq
This sample holds only a part of the variants without activity.
Would you mind labelling by nonsense suppression? At or over 0.1 is yes (1), under is no (0).

(Q) Item U2C C75U with nonsense suppression of 0.1 or above?
(A) yes (1)

(Q) In plain terms: is recorded nonsense suppression at least 0.1 for U17C A54U ?
(A) yes (1)

(Q) Exam item: decide whether the reported nonsense suppression for A13C U63C is at least 0.1.
(A) yes (1)

(Q) Could you tell me if the measured nonsense suppression of G10C G15C G32U U63A reaches 0.1 or more?
(A) no (0)

(Q) nonsense suppression >= 0.1 for G18U A33U C82U A89C ?
(A) no (0)

(Q) Exam item: decide whether the reported nonsense suppression for U17A C79A is at least 0.1.
(A) no (0)

(Q) Is nonsense suppression for A60C G84C at or above 0.1?
(A) no (0)

(Q) Threshold query (nonsense suppression >= 0.1) on A13C A54G G73C
(A) no (0)

Attribution: the RNAGym collection of RNA variant scans (doi:10.1101/gad.245936.114)
